# test.protocol: Testing the feasibility of the deprotection of TCO compounds upon reaction with tetrazine
# particulars: tetrazine 8; A) in acetonitrile with 5 equivalents of pyridine per TCO at 20° C.; for 1 h
So basically: Deprotection (%) at 60% or higher? That is t. Lower than 60%? That is f.

Solved entries:
IN: In plain terms: is recorded Deprotection (%) at least 60% for O=C(Oc1ccc([N+](=O)[O-])cc1)OC1/C=C/CCCCC1 (stereo not drawn) ?
OUT: t

IN: Assess whether reported Deprotection (%) for C1=C/C(Oc2ccccc2)CCCCC/1 (stereo not drawn) [drawing 120] sits at 60% or higher.
OUT: f

IN: Does Deprotection (%) meet or surpass 60% for O=C(OC1/C=C/CCCCC1)c1ccc([N+](=O)[O-])cc1 (stereo not drawn) [drawing 116] ?
OUT: t

IN: Form field: Deprotection (%) at least 60%? Entry: Cc1cc(C)cc(NC(=O)OC2/C=C/CCCCC2)c1 (stereo not drawn) [drawing 128]
OUT: f

IN: Exam item: decide whether the reported Deprotection (%) for Cc1cc(C)cc(NC(=O)OC2/C=C/CCCCC2)c1 (stereo not drawn) [drawing 126] is at least 60%.
OUT: f

Turning to the following compound.
IN: For this compound, is measured Deprotection (%) 60% or higher? O=C(NCc1cccc2ccccc12)OC1/C=C/CCCCC1 (stereo not drawn)
OUT: t
